# TARGET_UNDER_TEST: T1, human GFRα3 expressed with a C-terminal myc-myc-hexahistidine tag (human, UniProt O60609 32-374, biotinylated (sites not given) in ELISA format 2 and in the Octet cross-competition; not in SPR)
# T1 construct: also called hGFRα3-mmh; hGFRα3-mmH
# PROTOCOL_DESCRIPTION: SPR, Ab captured, 37C
MEASURED_ENDPOINT: Kd (nM)
Give the value in nM but do not write nM after it.

In: GET /values?readout=Kd&item= H1M2236N (antibody, V domains shown, chimeric, human variable and mouse constant domains (H1M)) VH: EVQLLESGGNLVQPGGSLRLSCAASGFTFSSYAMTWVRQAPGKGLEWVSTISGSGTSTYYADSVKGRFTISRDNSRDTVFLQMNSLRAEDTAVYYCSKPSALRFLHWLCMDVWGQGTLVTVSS VL: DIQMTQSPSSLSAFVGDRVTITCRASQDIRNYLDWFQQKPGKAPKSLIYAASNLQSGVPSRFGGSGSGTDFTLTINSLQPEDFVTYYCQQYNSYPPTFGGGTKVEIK
Out: 0.532

In: Please look up its Kd: H4H2345S (antibody, human IgG4, V domains shown, human IgG4 Fc (H4H)) VH: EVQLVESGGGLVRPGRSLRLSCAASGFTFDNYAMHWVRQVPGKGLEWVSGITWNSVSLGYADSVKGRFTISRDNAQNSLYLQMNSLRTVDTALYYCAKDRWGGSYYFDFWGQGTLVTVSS VL: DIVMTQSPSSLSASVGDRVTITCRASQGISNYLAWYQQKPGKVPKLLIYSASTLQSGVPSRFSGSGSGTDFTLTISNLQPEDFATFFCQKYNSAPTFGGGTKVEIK
Out: 47.3

In: Item under review: H4H2291S (antibody, human IgG4, V domains shown, human IgG4 Fc (H4H)) VH: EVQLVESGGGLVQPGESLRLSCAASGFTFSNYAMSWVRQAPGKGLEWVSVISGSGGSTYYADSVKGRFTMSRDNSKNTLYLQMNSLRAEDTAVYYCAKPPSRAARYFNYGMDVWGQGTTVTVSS VL: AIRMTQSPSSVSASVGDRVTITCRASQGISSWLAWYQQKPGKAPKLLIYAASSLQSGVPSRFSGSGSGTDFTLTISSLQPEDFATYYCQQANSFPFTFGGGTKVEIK . Reported Kd?
Out: 0.58
